System: CCRF-CEM
Assay: Inhibitory activity against proliferation of CEM cell line
Format: functional, cell-based, Homo sapiens
Details: ccrf-cem
pIC50: −log10 of the molar value.
PARAMETER: pIC50

>>> assay_result("COc1cc2nc(-c3ccc4c(c3)C(N(C)C)CC4)cc(O)c2cc1-c1cnco1 (stereo in doubt; 27)")
6.54

A. COc1cc2nc(-c3ccc4c(c3)C(N(C)C)CC4)cc(O)c2cc1-c1cnco1 (single isomer, unassigned; enantiomer B)
B. COc1cc2nc(-c3ccc4c(c3)C(N(C)C)CC4)cc(O)c2cc1-c1cnco1 (single isomer, unassigned; Enantiomer A)
Task: From the items above, decide which of A and B has the lower pIC50 reading. In your reply, give the label of the chosen option.
Output: A
(A: 6.26, B: 6.57)

----------
Entries with their measured IC50, system Inosine-5'-monophosphate dehydrogenase 2 (Homo sapiens):
PARAMETER: IC50 (nM)

Some compounds with known IC50 results, for comparison:
>>> assay_result("COc1cc2nc(-c3ccc4c(c3)C(OC(=O)N(C)C)CC4)cc(O)c2cc1-c1cnco1 (stereo unspecified)")
11
>>> assay_result("COc1cc2nc(-c3ccc(C)c(N4CCCC4)c3)cc(O)c2cc1-c1cnco1")
15

I. COc1cc2nc(-c3ccc(C)c(N4CCOCC4)c3)cc(O)c2cc1-c1cnco1
II. COc1cc2nc(-c3ccc4c(c3)C(N(C)C)CCO4)cc(O)c2cc1-c1cnco1 (stereo unspecified)
III. COCC(=O)N(C)C1CCc2ccc(-c3cc(O)c4cc(-c5cnco5)c(OC)cc4n3)cc21 (stereo unspecified)
IV. COc1cc2nc(-c3ccc4c(c3)C(O)CCC4)cc(O)c2cc1-c1cnco1 (stereo unspecified)
V. COc1cc2nc(-c3ccc(OC)c(N4CCN(C)CC4)c3)cc(O)c2cc1-c1cnco1
Task: Hi! Can you put these in order of IC50, lowest number first? To answer, arrange all of the labels according to the requested order.
Output: I, III, II, IV, V

----------
Here the recorded pIC50 is given for each entry.
Assay: Inhibitory activity against proliferation of peripheral blood mononuclear cells
Assay type: functional, Homo sapiens
Conditions: Homo sapiens
Units for pIC50: none; it is -log10 of a concentration expressed in mol/L.

Task: Respond only with pIC50 recorded for `COc1cc(NC(=O)Nc2cccc(CNC(=O)O[C@H]3CCOC3)c2)ccc1-c1cnco1`
Output: 6.77

Task: Respond only with pIC50 recorded for `COc1c(C)c2c(c(O)c1C/C=C(\C)CCC(=O)O)C(=O)OC2`
Output: 6.22

----------
Target: Inosine-5'-monophosphate dehydrogenase 2 (Homo sapiens, UniProt P12268)
pIC50: −log10 of the molar value.
PARAMETER: pIC50

>>> assay_result("COc1cc2nc(-c3ccc4c(c3)C(N(C)C)CC4)cc(O)c2cc1-c1cnco1 (stereo in doubt; 27)")
8.22
>>> assay_result("COc1cc2nc(-c3ccc4c(c3)C(N3CCCC3)CC4)cc(O)c2cc1-c1cnco1 (centres undefined)")
7.89
>>> assay_result("COc1cc2nc(-c3ccc4c(c3)CN(C)C4)cc(O)c2cc1-c1cnco1")
7.85
>>> assay_result("COc1cc2nc(-c3ccc4c(c3)C(N(C)C)CCC4)cc(O)c2cc1-c1cnco1 (centres undefined)")
7.82
>>> assay_result("CNC1CCc2ccc(-c3cc(O)c4cc(-c5cnco5)c(OC)cc4n3)cc21 (centres undefined)")
7.92

1. COc1cc2nc(-c3ccc4c(c3)C(N3CCC3)CC4)cc(O)c2cc1-c1cnco1 (centres undefined)
2. COc1cc2nc(-c3ccc(N4CCOCC4)cc3)cc(O)c2cc1-c1cnco1
Task: When their pIC50 values are compared, which is larger, 1 or 2 ? In your reply, give the label of the chosen option.
Output: 1
(1: 8.22, 2: 7.68)
